Attribution: patent US20060183696A1

Experiment: AUC of compounds tested in mice or rats
Parameters: concentration or dose not given beside the values
Settings: in vivo, po
Give AUC for every item shown.
Answers are plain numbers, in ng·h/mL.

Answered cases to consult:
{"compound": "CC[C@H]1OC(=O)[C@H](C)[C@@H](O)[C@H](C)[C@@H](O)[C@](C)(O)C[C@@H](C)CN(CCCN(CC)CCC(=O)O[C@]2(C(=O)OC)[C@H](C)CC3C4C[C@H](F)C5=CC(=O)C=C[C@]5(C)[C@@]4(F)[C@@H](O)C[C@@]32C)[C@H](C)[C@@H](O)[C@]1(C)O (some centres unmarked)", "assayResult": 60}
{"compound": "CC[C@H]1OC(=O)[C@H](C)[C@@H](O)[C@H](C)[C@@H](O)[C@](C)(O)C[C@@H](C)CN(CCCNCCC(=O)O[C@]2(C(=O)OC)[C@H](C)CC3C4C[C@H](F)C5=CC(=O)C=C[C@]5(C)[C@@]4(F)[C@@H](O)C[C@@]32C)[C@H](C)[C@@H](O)[C@]1(C)O (some centres unmarked)", "assayResult": 70}
{"compound": "CCCCN(CCCN1C[C@H](C)C[C@@](C)(O)[C@H](O)[C@@H](C)[C@H](O)[C@@H](C)C(=O)O[C@H](CC)[C@@](C)(O)[C@H](O)[C@H]1C)CCC(=O)O[C@]1(C(=O)OC)[C@H](C)CC2C3C[C@H](F)C4=CC(=O)C=C[C@]4(C)[C@@]3(F)[C@@H](O)C[C@@]21C (some centres unmarked)", "assayResult": 390}
{"compound": "CC[C@H]1OC(=O)[C@H](C)C(OC2C[C@@](C)(OC)[C@@H](O)[C@H](C)O2)[C@H](C)[C@@H](O[C@@H]2O[C@H](C)C[C@H](N(C)CCCNC(=O)[C@]3(O)[C@H](C)CC4C5CCC6=CC(=O)C=C[C@]6(C)[C@@]5(F)[C@@H](O)C[C@@]43C)[C@H]2O)[C@](C)(O)C[C@H](C)CN(C)[C@H](C)[C@@H](O)[C@]1(C)O (some centres unmarked)", "assayResult": 400}

Next item in the queue.
[in] Give reported AUC value for CCCN(CCCN1C[C@H](C)C[C@@](C)(O)[C@H](O)[C@@H](C)[C@H](O)[C@@H](C)C(=O)O[C@H](CC)[C@@](C)(O)[C@H](O)[C@H]1C)CCC(=O)O[C@]1(C(=O)OC)[C@H](C)CC2C3C[C@H](F)C4=CC(=O)C=C[C@]4(C)[C@@]3(F)[C@@H](O)C[C@@]21C (some centres unmarked)
[out] 60

---

Experiment: in vivo
Settings: male, BALB/CJ, mouse
parameter: bioavailability

[in] State, in one line, measured bioavailability of CC[C@H]1OC(=O)[C@H](C)[C@@H](O[C@H]2C[C@@](C)(OC)[C@@H](O)[C@H](C)O2)[C@H](C)[C@@H](O[C@@H]2O[C@H](C)C[C@H](N(C)C)[C@H]2O)[C@](C)(O)C[C@@H](C)CN(CCCNC(=O)[C@@]2(O)[C@H](C)CC3C4CCC5=CC(=O)C=C[C@]5(C)[C@@]4(F)[C@@H](O)C[C@@]32C)[C@H](C)[C@@H](O)[C@]1(C)O (stereo partly shown) [2′]
[out] < 1%

---

Task for the reader: assign each of the following compounds its reported bioavailability.
Test: Oral bioavailability in rats (p.o. vs i.v., HPLC/MS-MS)
Conditions: male, rat, in vivo
One number for each entry, in %.

Reference set, count: 2
{"compound": "CC[C@H]1OC(=O)[C@H](C)[C@@H](O[C@H]2C[C@@](C)(OC)[C@@H](O)[C@H](C)O2)[C@H](C)[C@@H](O[C@@H]2O[C@H](C)C[C@H](N(C)C)[C@H]2O)[C@](C)(O)C[C@@H](C)CN(CCCNC(=O)c2cccnc2Nc2cccc(C(F)(F)F)c2C)[C@H](C)[C@@H](O)[C@]1(C)O [4′]", "outputUnit": "%", "bioavailability": 6.9}
{"compound": "CC[C@H]1OC(=O)[C@H](C)[C@@H](O[C@H]2C[C@@](C)(OC)[C@@H](O)[C@H](C)O2)[C@H](C)[C@@H](O[C@@H]2O[C@H](C)C[C@H](N(C)C)[C@H]2O)[C@](C)(O)C[C@@H](C)CN(CCCNC(=O)Cc2c(C)n(C(=O)c3ccc(Cl)cc3)c3ccc(OC)cc23)[C@H](C)[C@@H](O)[C@]1(C)O [3′]", "outputUnit": "%", "bioavailability": 3.7}

From here, focus on the item given below.
[in] Assign bioavailability to the following record: CC[C@H]1OC(=O)[C@H](C)[C@@H](O)[C@H](C)[C@@H](O[C@@H]2O[C@H](C)C[C@H](N(C)C)[C@H]2O)[C@](C)(O)C[C@@H](C)CN(CCCNC(=O)Cc2c(C)n(C(=O)c3ccc(Cl)cc3)c3ccc(OC)cc23)[C@H](C)[C@@H](O)[C@]1(C)O [9′]
[out] 2.5
